Target: T1, human alpha CGRP (SEQ ID NO: 80) (human, not fully specified)
T1 construct: also called human αCGRP; hαCGRP
T1 peptide: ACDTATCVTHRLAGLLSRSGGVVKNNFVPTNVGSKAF
Test: SPR, 37 C, mutein captured, CGRP analyte
readout-type: koff

binder: lipocalin mutein SEQ ID NO: 28 (designed binder, biotinylated by NHS chemistry for capture in SPR) QDSTSDLIPAPPLSKVPLQQNFQDNQFHGKWYVVGWAGNTLLREDKDPIKMQAIIYELKEDRSYNVTWVYFSEKKCNYHIETFVPGSQPGEFTLGTIKSYPGETPILVRVMSTNYNQHAMVFFKGVNQNREIFEIILYGRTKELTNELKENFIRFSKSLGLPENHIVFPVPIDQCIDGSAWSHPQFEK
observed-measurement: 4.99e-05 s⁻¹

All figures here come from patent US20190338002A1.
